Target: pooled human IgG (human IgG1,2,3 and 4)
Recorded measurements of Enzyme activity endpoint: scIgG, one per entry
quantity.name: Enzyme activity endpoint: scIgG (ng/µL)

• PRT-656 (protein) MQITSVWTKGVTPLTPEQFRYNNEDVIHAPYLAHQGWYDITKAFDGKDNLLCGAATAGNMLHWWFDQNKTEIEAYLSKHPEKQKIIFNNQELFDLKRAINDKDSQQNSELFNYFRDKAFPNLSARQLGVMPDLVLDMFINGYYLNVFKTQSTDVNRPYQDKDKRGGIFDAVFTRGDQTTLLTARHDLKNKGLNDISTIIKQELTEGRALALSHTYANVSISHVINLWGADFNAEGNLEAIYVTDSDANASIGMKKYFVGINAHGHVAISAKKIEGENIGAQVLGLFTLSSGKDIWQKLSLEHHHHHH = 319
• PRT-649 (protein) MQITSVWTKGVTPLTPEQFRYNNEDVIHAPYLAHQGWYDITKAFDGKDNLLCGAATAGNMLHWWFDQNKTEIEAYLSKHPEKQKIIFNNQYLFDLKAAIDTKDSQTNSQLFNYFRDKAFGNLSARQLGVMPDLVLDMFINGYKLKVNKTQSTDVNRPYQKPDNFGGIFDAVFTRGDQTTLLTARHDLKNKGLNDISTIIKQELTEGRALALSHTYANVSISHVINLWGADFNAEGNLEAIYVTDSDANASIGMKKYFVGINAHGHVAISAKKIEGENIGAQVLGLFTLSSGKDIWQKLSLEHHHHHH = 24
